Listing of entries alongside the reported IC50.
- System: MDA-MB-231
- EXPERIMENT_SUMMARY: Cytotoxicity against human MDA-MB-231 cells assessed as cell death measured by MTT assay
- Assay type: functional, cell-based
Please respond with the number in µM and leave the unit unwritten.

COMPOUND	TARGET_OR_TEST_SYSTEM	UNIT	IC50
CC(=O)O[C@@]12CO[C@@H]1C[C@H](O)[C@@]1(C)C(=O)[C@H](O)C3=C(C)[C@@H](OC(=O)[C@H](O)[C@@H](NC(=O)OC(C)(C)C)c4ccccc4)C[C@@](O)([C@@H](OC(=O)c4ccccc4)[C@H]21)C3(C)C [DOCETAXEL ANHYDROUS]	MDA-MB-231	µM	38.9

INPUT: For MDA-MB-231, give the measured IC50 of the entry COc1cccc2c1C(=O)c1c(O)c3c(c(O)c1C2=O)C[C@@](O)(C(=O)CO)C[C@@H]3O[C@H]1C[C@H](N)[C@H](O)[C@H](C)O1
OUTPUT: 46.5
